Listed below: viability at 24 h, 50 µM values for each entry.
Experiment Description: Cytotoxicity against human LS180 cells assessed as effect on cell viability at 50 uM measured after 24 hrs by MTT assay relative to control
Format: toxicity, cell-based
Settings: read-out: Activity
Output spec: scalar in %, unitless text.

O=S(=O)(c1ccccc1)N(Cc1cn(-c2ccc(C(F)(F)F)cc2)nn1)c1ccc(C(O)(C(F)(F)F)C(F)(F)F)cc1 = 62.8
CC(=O)c1ccc(N(Cc2ccccc2)S(=O)(=O)c2ccccc2)cc1 = 89.5
CC(=O)c1ccc(N(Cc2cn(-c3ccc(C)cc3)nn2)S(=O)(=O)c2ccccc2)cc1 = 84.1
O=S(=O)(c1ccccc1)N(Cc1cn(-c2cccc(F)c2)nn1)c1ccc(C(O)(C(F)(F)F)C(F)(F)F)cc1 = 56
CCOC(=O)c1ccc(-n2cc(CN(c3ccc(C(O)(C(F)(F)F)C(F)(F)F)cc3)S(=O)(=O)c3ccccc3)nn2)cc1 = 76.5

Here is another compound to look at.
Could you tell me which viability at 24 h, 50 µM is on file for `CC(=O)c1ccc(N(CC(F)(F)F)S(=O)(=O)c2ccccc2)cc1` ?
88.3

---

Item-by-item account of selectivity ratio
Experiment Description: Therapeutic index, ratio of effective concentration for cytotoxicity in human SH-SY5Y cells to effective concentration for activation of PXR/LXR in human LS180 cells assessed as induction of P-gp
Assay type: cell-based
Settings: read-out: TI
Enter the number alone.

Some entries whose results are on file:
CC(=O)c1ccc(N(Cc2cn(-c3cccc([N+](=O)[O-])c3)nn2)S(=O)(=O)c2ccccc2)cc1 = 10
CC(=O)c1ccc(N(Cc2cn(-c3ccc(C)cc3)nn2)S(=O)(=O)c2ccccc2)cc1 = 10
O=S(=O)(c1ccccc1)N(Cc1cn(-c2c(F)cccc2F)nn1)c1ccc(C(O)(C(F)(F)F)C(F)(F)F)cc1 = 10
CC(=O)c1ccc(N(Cc2cn(-c3ccccc3C(F)(F)F)nn2)S(=O)(=O)c2ccccc2)cc1 = 10
CC(=O)c1ccc(N(Cc2cn(-c3ccccc3C#N)nn2)S(=O)(=O)c2ccccc2)cc1 = 10

Value lookup for selectivity ratio; key = `O=S(=O)(c1ccccc1)N(Cc1cn(-c2cccc(F)c2)nn1)c1ccc(C(O)(C(F)(F)F)C(F)(F)F)cc1`
10

Look up selectivity ratio: `O=S(=O)(c1ccccc1)N(Cc1cn(-c2ccc(C(F)(F)F)cc2)nn1)c1ccc(C(O)(C(F)(F)F)C(F)(F)F)cc1`
10

Can you look up the measured selectivity ratio of `O=[N+]([O-])c1ccc(-n2cc(CN(c3ccc(C(O)(C(F)(F)F)C(F)(F)F)cc3)S(=O)(=O)c3ccccc3)nn2)cc1` for me?
10

---

Experiment Description: Therapeutic index, ratio of effective concentration for cytotoxicity in human SH-SY5Y cells to effective concentration for activation of PXR/LXR in human LS180 cells assessed as induction of P-gp
Assay type: cell-based
Settings: read-out: TI
Measured Quantity: selectivity ratio
I'd appreciate a reply containing only the number, no unit.

For orientation, consider the following solved cases.
O=S(=O)(c1ccccc1)N(Cc1cn(-c2ccc(OC(F)(F)F)cc2)nn1)c1ccc(C(O)(C(F)(F)F)C(F)(F)F)cc1 = 10
O=S(=O)(c1ccccc1)N(Cc1cn(-c2ccccc2)nn1)c1ccc(C(O)(C(F)(F)F)C(F)(F)F)cc1 = 10

Could you now consider this next molecule?
Returns the measured selectivity ratio for the input molecule. Input: `C#CCOC(c1ccc(N(CC#C)S(=O)(=O)c2ccccc2)cc1)(C(F)(F)F)C(F)(F)F`
10
